target: Mu-type opioid receptor (Homo sapiens); assay: Binding affinity to mu type opioid receptor (unknown origin) by competition binding assay
Sequence (P35372 whole entry): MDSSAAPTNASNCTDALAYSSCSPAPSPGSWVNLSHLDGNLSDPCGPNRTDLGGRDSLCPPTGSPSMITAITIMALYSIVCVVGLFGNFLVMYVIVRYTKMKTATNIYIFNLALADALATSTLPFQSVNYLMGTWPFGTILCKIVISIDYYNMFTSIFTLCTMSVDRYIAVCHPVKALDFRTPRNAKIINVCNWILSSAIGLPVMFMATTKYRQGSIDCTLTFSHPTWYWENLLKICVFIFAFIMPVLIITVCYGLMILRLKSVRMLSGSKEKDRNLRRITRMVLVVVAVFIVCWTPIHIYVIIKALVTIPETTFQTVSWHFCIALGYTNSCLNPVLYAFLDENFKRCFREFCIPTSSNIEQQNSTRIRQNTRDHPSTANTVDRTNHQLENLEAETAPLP
pKi: −log10 of the molar value.

# LINE_NOTATION, pKi
data = [
    ("C=CCN(CC=C)CCc1c[nH]c2ccc(OC)cc12", "> 5.00"),
    ("C=CCN(CC=C)CCc1c[nH]c2ccc(Br)cc12", 5.76),
    ("C=CCN(CC=C)CCc1c[nH]c2ccc(F)cc12", "> 5.00"),
    ("C=CCN(CC=C)CCc1c[nH]c2ccc(Cl)cc12", 5.55),
    ("C=CCN(CC=C)CCc1c[nH]c2ccccc12", "> 5.00"),
    ("C=CCN(CC=C)CCc1c[nH]c2ccc(C)cc12", "> 5.00"),
]

---

Entries and their Ki values follow.
biological target: 5-hydroxytryptamine receptor 1D (Homo sapiens); test: Binding affinity to 5-HT 1D (unknown origin) by competition binding assay; settings: read-out: Ki
Sequence (P28221 whole entry): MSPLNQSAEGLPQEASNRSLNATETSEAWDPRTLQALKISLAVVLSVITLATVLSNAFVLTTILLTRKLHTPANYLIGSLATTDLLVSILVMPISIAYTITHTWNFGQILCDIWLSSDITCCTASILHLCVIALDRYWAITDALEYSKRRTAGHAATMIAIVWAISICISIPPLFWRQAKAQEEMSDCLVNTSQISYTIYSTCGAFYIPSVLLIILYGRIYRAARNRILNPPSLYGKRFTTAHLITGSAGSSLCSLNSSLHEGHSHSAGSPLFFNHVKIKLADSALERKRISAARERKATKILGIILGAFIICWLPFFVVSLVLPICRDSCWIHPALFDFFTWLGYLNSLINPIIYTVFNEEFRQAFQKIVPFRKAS

# LINE_NOTATION, Ki
measured = [
    ("C=CCN(CC=C)CCc1c[nH]c2ccc(C)cc12", "< 10 µM"),
    ("C=CCN(CC=C)CCc1c[nH]c2ccccc12", "< 10 µM"),
    ("C=CCN(CC=C)CCc1c[nH]c2ccc(OC)cc12", "< 10 µM"),
]

---

pKi: −log10 of the molar value.
Let's go through some pKi measurements on Sodium-dependent serotonin transporter (Homo sapiens) together.
Sequence (P31645 whole entry): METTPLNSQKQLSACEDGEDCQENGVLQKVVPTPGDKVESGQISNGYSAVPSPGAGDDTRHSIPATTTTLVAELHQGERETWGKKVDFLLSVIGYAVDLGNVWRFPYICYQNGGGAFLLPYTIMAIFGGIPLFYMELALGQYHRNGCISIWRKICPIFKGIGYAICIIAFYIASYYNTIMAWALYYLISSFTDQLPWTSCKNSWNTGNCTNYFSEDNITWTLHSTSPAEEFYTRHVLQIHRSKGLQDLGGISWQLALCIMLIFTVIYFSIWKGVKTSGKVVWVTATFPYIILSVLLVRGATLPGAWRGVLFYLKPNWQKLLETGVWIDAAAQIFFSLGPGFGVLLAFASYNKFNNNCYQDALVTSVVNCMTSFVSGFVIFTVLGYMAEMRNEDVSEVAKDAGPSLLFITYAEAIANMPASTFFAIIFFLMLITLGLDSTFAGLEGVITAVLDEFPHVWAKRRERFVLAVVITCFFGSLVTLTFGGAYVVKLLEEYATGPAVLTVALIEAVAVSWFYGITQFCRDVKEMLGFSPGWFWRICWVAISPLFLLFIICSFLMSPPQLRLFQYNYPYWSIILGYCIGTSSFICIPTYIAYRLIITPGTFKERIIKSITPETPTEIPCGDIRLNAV
MEASURED_PARAMETER: pKi

# LINE_NOTATION, OBS_VALUE
measured = [
    ("C=CCN(CC=C)CCc1c[nH]c2ccc(F)cc12", 7.44),
    ("C=CCN(CC=C)CCc1c[nH]c2ccc(Cl)cc12", 7.39),
    ("C=CCN(CC=C)CCc1c[nH]c2ccc(OC)cc12", 6.30),
    ("C=CCN(CC=C)CCc1c[nH]c2ccc(C)cc12", 6.44),
    ("C=CCN(CC=C)CCc1c[nH]c2ccccc12", 6.82),
]

---

Target: 5-hydroxytryptamine receptor 2C (Homo sapiens, UniProt P28335)
Sequence (P28335 whole entry): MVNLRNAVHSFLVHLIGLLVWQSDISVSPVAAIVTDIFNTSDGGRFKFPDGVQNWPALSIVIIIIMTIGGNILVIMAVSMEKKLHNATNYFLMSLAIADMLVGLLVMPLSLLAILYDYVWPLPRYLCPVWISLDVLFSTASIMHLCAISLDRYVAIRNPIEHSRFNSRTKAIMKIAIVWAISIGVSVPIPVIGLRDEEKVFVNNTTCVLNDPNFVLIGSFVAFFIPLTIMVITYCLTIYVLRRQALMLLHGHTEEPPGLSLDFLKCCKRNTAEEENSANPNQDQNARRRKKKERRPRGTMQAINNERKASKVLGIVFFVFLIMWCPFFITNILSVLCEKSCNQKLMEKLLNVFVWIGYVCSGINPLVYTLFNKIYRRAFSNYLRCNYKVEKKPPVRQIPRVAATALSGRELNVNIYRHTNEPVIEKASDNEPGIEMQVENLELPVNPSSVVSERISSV
Test: Binding affinity to 5-HT 2C (unknown origin) by competition binding assay
Details: read-out: Ki
pKi: −log10 of the molar value.

# LINE_NOTATION, TARGET_OR_SYSTEM, pKi
records = [
    ("C=CCN(CC=C)CCc1c[nH]c2ccc(OC)cc12", "5-hydroxytryptamine receptor 2C (Homo sapiens, UniProt P28335)", "> 5.00"),
    ("C=CCN(CC=C)CCc1c[nH]c2ccc(C)cc12", "5-hydroxytryptamine receptor 2C (Homo sapiens, UniProt P28335)", "> 5.00"),
    ("C=CCN(CC=C)CCc1c[nH]c2ccccc12", "5-hydroxytryptamine receptor 2C (Homo sapiens, UniProt P28335)", "> 5.00"),
]

---

Let's go through some Ki measurements on 5-hydroxytryptamine receptor 7 (Homo sapiens, UniProt P34969) together.
Sequence (P34969 whole entry): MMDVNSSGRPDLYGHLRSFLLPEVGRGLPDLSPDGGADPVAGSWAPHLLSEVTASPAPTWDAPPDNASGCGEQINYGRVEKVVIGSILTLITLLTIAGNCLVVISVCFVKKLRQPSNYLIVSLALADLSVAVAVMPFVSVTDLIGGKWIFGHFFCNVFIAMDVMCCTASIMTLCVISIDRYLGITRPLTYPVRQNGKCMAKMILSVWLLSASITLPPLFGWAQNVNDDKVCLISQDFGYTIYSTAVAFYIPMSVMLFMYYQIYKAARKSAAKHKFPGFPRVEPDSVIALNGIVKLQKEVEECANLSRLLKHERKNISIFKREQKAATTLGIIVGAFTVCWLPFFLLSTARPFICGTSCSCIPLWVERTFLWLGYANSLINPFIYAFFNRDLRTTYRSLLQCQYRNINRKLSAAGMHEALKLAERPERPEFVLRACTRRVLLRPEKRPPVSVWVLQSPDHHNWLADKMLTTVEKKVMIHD

# LINE_NOTATION, Ki [nM]
data = [
    ("C=CCN(CC=C)CCc1c[nH]c2ccc(C)cc12", 155),
    ("C=CCN(CC=C)CCc1c[nH]c2ccc(Cl)cc12", 74.1),
    ("C=CCN(CC=C)CCc1c[nH]c2ccc(OC)cc12", 89.1),
    ("C=CCN(CC=C)CCc1c[nH]c2ccc(Br)cc12", 49),
    ("C=CCN(CC=C)CCc1c[nH]c2ccc(F)cc12", 398),
]

---

Let's go through some Ki measurements on UniProtKB P35368 together.
Sequence (P35368 whole entry): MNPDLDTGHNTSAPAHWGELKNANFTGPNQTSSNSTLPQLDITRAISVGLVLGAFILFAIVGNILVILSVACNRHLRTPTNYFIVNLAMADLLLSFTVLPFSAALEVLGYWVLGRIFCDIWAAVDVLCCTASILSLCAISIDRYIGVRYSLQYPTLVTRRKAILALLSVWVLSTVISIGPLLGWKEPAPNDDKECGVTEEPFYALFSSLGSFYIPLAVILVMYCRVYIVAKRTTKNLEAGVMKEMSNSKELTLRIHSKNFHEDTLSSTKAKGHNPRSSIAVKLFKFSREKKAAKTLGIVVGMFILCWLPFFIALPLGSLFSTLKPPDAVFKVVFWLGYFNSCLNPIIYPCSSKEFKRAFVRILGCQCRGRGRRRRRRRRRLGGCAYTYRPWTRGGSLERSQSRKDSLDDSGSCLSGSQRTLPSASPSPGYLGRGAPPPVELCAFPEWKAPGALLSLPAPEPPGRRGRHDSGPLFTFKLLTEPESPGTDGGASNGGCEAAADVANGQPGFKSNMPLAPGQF

# LINE_NOTATION, Ki
data = [
    ("C=CCN(CC=C)CCc1c[nH]c2ccc(Br)cc12", "2 µM"),
    ("C=CCN(CC=C)CCc1c[nH]c2ccc(C)cc12", "1.78 µM"),
    ("C=CCN(CC=C)CCc1c[nH]c2ccc(Cl)cc12", "0.794 µM"),
    ("C=CCN(CC=C)CCc1c[nH]c2ccccc12", "1.26 µM"),
]

---

Let's go through some Ki measurements on 5-hydroxytryptamine receptor 5A (Homo sapiens, UniProt P47898) together.
Sequence (P47898 whole entry): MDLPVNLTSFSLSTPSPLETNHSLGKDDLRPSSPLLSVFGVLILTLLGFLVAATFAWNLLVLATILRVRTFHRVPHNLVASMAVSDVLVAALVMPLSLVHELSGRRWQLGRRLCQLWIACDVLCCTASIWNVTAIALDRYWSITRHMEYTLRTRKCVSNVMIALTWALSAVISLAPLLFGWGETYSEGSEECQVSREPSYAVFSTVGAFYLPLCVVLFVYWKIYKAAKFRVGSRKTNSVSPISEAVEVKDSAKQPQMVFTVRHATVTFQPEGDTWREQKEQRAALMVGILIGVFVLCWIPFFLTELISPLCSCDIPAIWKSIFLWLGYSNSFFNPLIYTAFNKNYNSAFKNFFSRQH

# LINE_NOTATION, TARGET_OR_SYSTEM, Ki [µM]
rows = [
    ("C=CCN(CC=C)CCc1c[nH]c2ccc(Br)cc12", "5-hydroxytryptamine receptor 5A (Homo sapiens, UniProt P47898)", 2.4),
    ("C=CCN(CC=C)CCc1c[nH]c2ccc(C)cc12", "5-hydroxytryptamine receptor 5A (Homo sapiens, UniProt P47898)", 3.24),
    ("C=CCN(CC=C)CCc1c[nH]c2ccc(OC)cc12", "5-hydroxytryptamine receptor 5A (Homo sapiens, UniProt P47898)", 3.31),
    ("C=CCN(CC=C)CCc1c[nH]c2ccc(Cl)cc12", "5-hydroxytryptamine receptor 5A (Homo sapiens, UniProt P47898)", 2.09),
    ("C=CCN(CC=C)CCc1c[nH]c2ccc(F)cc12", "5-hydroxytryptamine receptor 5A (Homo sapiens, UniProt P47898)", 4.27),
]

---

Let's go through some Ki measurements on 5-hydroxytryptamine receptor 1B (Homo sapiens, UniProt P28222) together.
Sequence (P28222 whole entry): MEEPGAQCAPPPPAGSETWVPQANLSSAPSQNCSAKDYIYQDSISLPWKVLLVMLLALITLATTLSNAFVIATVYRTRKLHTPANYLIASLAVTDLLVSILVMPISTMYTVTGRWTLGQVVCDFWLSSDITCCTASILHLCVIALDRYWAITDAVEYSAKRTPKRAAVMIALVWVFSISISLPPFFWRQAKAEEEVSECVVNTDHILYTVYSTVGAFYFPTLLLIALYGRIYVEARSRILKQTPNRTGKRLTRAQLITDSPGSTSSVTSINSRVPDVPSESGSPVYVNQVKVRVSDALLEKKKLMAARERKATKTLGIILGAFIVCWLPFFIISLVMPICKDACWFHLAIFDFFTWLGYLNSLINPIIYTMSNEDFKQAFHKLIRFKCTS
MEASURED_PARAMETER: Ki (µM)

# LINE_NOTATION, OBS_VALUE
measured = [
    ("C=CCN(CC=C)CCc1c[nH]c2ccc(Cl)cc12", 0.891),
    ("C=CCN(CC=C)CCc1c[nH]c2ccc(F)cc12", 1.78),
    ("C=CCN(CC=C)CCc1c[nH]c2ccc(C)cc12", 1.35),
    ("C=CCN(CC=C)CCc1c[nH]c2ccc(Br)cc12", 0.955),
]

---

Target: UniProtKB P25100
Sequence (P25100 whole entry): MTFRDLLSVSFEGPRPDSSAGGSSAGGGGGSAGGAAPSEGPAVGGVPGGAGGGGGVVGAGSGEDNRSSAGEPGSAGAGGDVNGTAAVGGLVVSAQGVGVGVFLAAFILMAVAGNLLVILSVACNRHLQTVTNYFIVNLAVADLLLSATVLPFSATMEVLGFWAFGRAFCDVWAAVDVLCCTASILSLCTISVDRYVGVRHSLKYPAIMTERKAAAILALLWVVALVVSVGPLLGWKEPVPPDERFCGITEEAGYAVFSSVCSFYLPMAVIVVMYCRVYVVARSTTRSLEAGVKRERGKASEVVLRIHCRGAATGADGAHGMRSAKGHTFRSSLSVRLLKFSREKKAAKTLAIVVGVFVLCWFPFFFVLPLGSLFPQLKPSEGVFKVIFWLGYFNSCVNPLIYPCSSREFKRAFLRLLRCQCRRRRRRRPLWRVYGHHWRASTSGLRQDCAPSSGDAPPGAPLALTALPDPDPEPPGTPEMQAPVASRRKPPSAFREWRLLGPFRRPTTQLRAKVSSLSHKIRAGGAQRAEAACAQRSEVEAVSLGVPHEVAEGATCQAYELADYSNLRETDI
Entries and their Ki values follow.

# LINE_NOTATION, Ki
data = [
    ("C=CCN(CC=C)CCc1c[nH]c2ccc(OC)cc12", "< 10 µM"),
    ("C=CCN(CC=C)CCc1c[nH]c2ccccc12", "< 10 µM"),
    ("C=CCN(CC=C)CCc1c[nH]c2ccc(Cl)cc12", "1.32 µM"),
    ("C=CCN(CC=C)CCc1c[nH]c2ccc(Br)cc12", "1.12 µM"),
    ("C=CCN(CC=C)CCc1c[nH]c2ccc(F)cc12", "< 10 µM"),
    ("C=CCN(CC=C)CCc1c[nH]c2ccc(C)cc12", "< 10 µM"),
]

---

Entries and their Ki values follow.
molecular target: 5-hydroxytryptamine receptor 2B (Homo sapiens, UniProt P41595); test: Binding affinity to 5-HT 2B (unknown origin) by competition binding assay; details: read-out: Ki
Sequence (P41595 whole entry): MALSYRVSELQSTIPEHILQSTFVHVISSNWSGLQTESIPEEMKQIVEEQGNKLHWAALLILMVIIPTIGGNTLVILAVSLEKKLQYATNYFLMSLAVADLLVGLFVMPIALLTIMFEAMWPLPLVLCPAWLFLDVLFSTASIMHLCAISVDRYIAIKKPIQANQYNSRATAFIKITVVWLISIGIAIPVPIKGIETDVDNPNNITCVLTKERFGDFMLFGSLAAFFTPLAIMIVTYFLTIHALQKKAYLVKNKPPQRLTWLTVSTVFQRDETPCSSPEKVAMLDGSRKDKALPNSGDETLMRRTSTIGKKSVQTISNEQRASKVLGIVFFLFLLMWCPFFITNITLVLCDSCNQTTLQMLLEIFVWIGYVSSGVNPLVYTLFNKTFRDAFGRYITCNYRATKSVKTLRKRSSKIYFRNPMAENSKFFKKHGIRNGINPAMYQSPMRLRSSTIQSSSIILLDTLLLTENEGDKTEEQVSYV

# LINE_NOTATION, Ki
records = [
    ("C=CCN(CC=C)CCc1c[nH]c2ccc(C)cc12", "< 10 µM"),
    ("C=CCN(CC=C)CCc1c[nH]c2ccc(OC)cc12", "< 10 µM"),
    ("C=CCN(CC=C)CCc1c[nH]c2ccccc12", "< 10 µM"),
]
